Biological target: human Src enzyme (Homo sapiens, UniProt P12931)
Construct: purchased Carna Biosciences, Inc. 08-173
Sequence (P12931 whole entry): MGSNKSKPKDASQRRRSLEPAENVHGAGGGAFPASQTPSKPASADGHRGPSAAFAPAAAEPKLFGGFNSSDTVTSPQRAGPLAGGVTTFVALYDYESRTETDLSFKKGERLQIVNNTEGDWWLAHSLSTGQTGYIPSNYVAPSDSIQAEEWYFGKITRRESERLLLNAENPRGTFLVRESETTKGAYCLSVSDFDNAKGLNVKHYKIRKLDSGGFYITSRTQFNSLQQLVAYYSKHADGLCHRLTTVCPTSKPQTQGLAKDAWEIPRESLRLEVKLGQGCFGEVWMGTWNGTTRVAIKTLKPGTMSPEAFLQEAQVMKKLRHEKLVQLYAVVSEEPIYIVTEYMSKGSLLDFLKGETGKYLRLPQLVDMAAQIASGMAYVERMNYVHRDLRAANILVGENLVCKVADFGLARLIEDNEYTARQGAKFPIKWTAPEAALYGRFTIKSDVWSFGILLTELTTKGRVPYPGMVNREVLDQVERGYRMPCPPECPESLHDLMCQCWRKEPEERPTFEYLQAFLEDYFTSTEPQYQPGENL
Assay: Src enzyme inhibitory activity (time-resolved fluorometry, biotinylated peptide phosphorylation)
Type: biochemical
Conditions: read-out: SRC_IC50
Lab note: anything with IC50 below 20 nM is marked met; values at 20 nM or higher are marked not met.

[[record]]
smiles_representation = "Cc1cc(Oc2ccccc2Cl)nc(C)c1-n1ncc(C(=O)c2cc3cc(F)c(NS(C)(=O)=O)cc3[nH]2)c1N"
answer_label = "not met"

[[record]]
smiles_representation = "Cc1cc2cc(C(=O)c3cnn(-c4c(C)cc(Oc5ccccc5F)cc4F)c3N)[nH]c2cc1N1CCC(N2CCOCC2)CC1"
answer_label = "not met"

[[record]]
smiles_representation = "Cc1cc(-n2ncc(C(=O)c3cc4cc(OC5CCN(C(C)C)CC5)c(Br)cc4[nH]3)c2N)ccc1Oc1ccccc1F"
answer_label = "not met"

[[record]]
smiles_representation = "Cc1cc2cc(C(=O)c3cnn(-c4c(C)cc(Oc5c(F)cccc5F)cc4F)c3N)[nH]c2cc1NS(C)(=O)=O"
answer_label = "not met"

[[record]]
smiles_representation = "Cc1cc(Oc2c(F)cccc2F)ncc1-n1ncc(C(=O)c2cc3cc(OC4CCN(C(C)C)CC4)c(F)cc3[nH]2)c1N"
answer_label = "met"

[[record]]
smiles_representation = "Cc1cc(-n2ncc(C(=O)c3cc4cc(OC5CCN(CCO)CC5)c(Br)cc4[nH]3)c2N)ccc1Oc1ccccc1F"
answer_label = "not met"

[[record]]
smiles_representation = "COc1cc2cc(C(=O)c3cnn(-c4cnc(Oc5ccccc5F)cc4C)c3N)[nH]c2cc1Br"
answer_label = "met"


###

Target: human Yes1 enzyme (Homo sapiens, UniProt P07947)
Construct: made in house
Sequence (P07947 whole entry): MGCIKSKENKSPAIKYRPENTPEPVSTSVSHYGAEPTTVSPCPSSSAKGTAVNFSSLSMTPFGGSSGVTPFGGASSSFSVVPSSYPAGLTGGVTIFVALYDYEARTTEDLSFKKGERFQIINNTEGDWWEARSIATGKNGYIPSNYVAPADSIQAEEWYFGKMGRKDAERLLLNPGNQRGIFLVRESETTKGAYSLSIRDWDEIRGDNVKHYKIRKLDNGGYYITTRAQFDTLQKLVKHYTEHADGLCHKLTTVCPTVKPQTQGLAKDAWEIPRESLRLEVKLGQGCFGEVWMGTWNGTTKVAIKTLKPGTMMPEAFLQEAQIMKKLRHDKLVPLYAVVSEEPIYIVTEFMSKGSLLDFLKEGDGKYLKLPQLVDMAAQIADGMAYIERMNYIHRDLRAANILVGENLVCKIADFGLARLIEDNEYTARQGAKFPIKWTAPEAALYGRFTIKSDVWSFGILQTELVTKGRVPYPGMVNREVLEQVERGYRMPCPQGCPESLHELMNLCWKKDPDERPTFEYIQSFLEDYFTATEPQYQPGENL
Experiment: Yes1 enzyme inhibitory activity (time-resolved fluorometry, biotinylated peptide phosphorylation)
Type: biochemical
Details: biotinylated peptide phosphorylation, read-out: YES_IC50
Experimental: 1. Yes1 Enzyme Inhibitory Activity Yes1 inhibitory activity was determined based on activity of inhibiting phosphorylation reaction of a biotinylated peptide (EGPWLEEEEEAYGWMDF) using a human Yes1 enzyme prepared using a baculovirus expression system. The phosphorylated biotinylated peptide was detected by time-resolved fluorometry using an anti-phosphorylated tyrosine antibody conjugated to europium cryptate, and streptavidin conjugated to XL665, an allophycocyanin derivative. […]
pIC50: −log10 of the molar value.
experimental-endpoint: pIC50

[[record]]
compound = "Cc1cc(Oc2ccccc2F)cc(F)c1-n1ncc(C(=O)c2cc3cc(OCC(F)F)c(C4CCN(S(C)(=O)=O)CC4)cc3[nH]2)c1N [Example 4-17-018]"
observed_result = 8.62

[[record]]
compound = "Cc1cc(Oc2ccccc2F)ccc1-n1ncc(C(=O)c2cc3cc(OCC(F)F)c(NS(=O)(=O)c4cccnc4)cc3[nH]2)c1N [Example 5-1-418]"
observed_result = 8.85

[[record]]
compound = "COc1cc2cc(C(=O)c3cnn(-c4ccc(Oc5ccccc5F)cc4C)c3N)[nH]c2cc1NS(C)(=O)=O [Example 4-1-004]"
observed_result = 9.28

[[record]]
compound = "Cc1cc2cc(C(=O)c3cnn(-c4cnc(Oc5ccccc5F)cc4C)c3N)[nH]c2cc1NS(=O)(=O)c1cccnc1 [Example 5-1-441]"
observed_result = 8.74

[[record]]
compound = "Cc1cc(Oc2ccccc2F)ccc1-n1ncc(C(=O)c2cc3cc(F)c(NS(C)(=O)=O)cc3[nH]2)c1N [Example 4-1-002]"
observed_result = 9.28

[[record]]
compound = "Cc1cc2cc(C(=O)c3cnn(-c4cnc(Oc5c(F)cccc5F)cc4C)c3N)[nH]c2cc1N1C(=O)N[C@@H](C(C)C)C1=O [Example 5-1-453]"
observed_result = 8.49


###

Target: human Src enzyme (Homo sapiens)
Construct: purchased Carna Biosciences, Inc. 08-173
Test: Src enzyme inhibitory activity (time-resolved fluorometry, biotinylated peptide phosphorylation)
Format: biochemical
Details: read-out: SRC_IC50
experimental-endpoint: IC50 (µM)

[[record]]
smiles_representation = "Cc1cc(-n2ncc(C(=O)c3cc4cc(OC5CCN(C6CCCC6)CC5)c(-c5ccccc5F)cc4[nH]3)c2N)ccc1Oc1ccccc1F"
observed_result = 1.3

[[record]]
smiles_representation = "Cc1cc2cc(C(=O)c3cnn(-c4cnc(Oc5c(F)cccc5F)cc4C)c3N)[nH]c2cc1N1C(=O)NC2(CC2)C1=O"
observed_result = 0.039

[[record]]
smiles_representation = "CCc1cc2cc(C(=O)c3cnn(-c4cnc(Oc5c(F)cccc5F)cc4C)c3N)[nH]c2cc1NS(C)(=O)=O"
observed_result = 0.075

[[record]]
smiles_representation = "Cc1cc(-n2ncc(C(=O)c3cc4cc(OC[C@H](O)CO)c(NS(C)(=O)=O)cc4[nH]3)c2N)ccc1Oc1ccccc1F"
observed_result = 0.5

[[record]]
smiles_representation = "Cc1cc(Oc2c(F)cccc2F)ncc1-n1ncc(C(=O)c2cc3cc(OC4CCN(C(C)C)CC4)c(N4CCOC4=O)cc3[nH]2)c1N"
observed_result = 0.0019

[[record]]
smiles_representation = "Cc1cc2cc(C(=O)c3cnn(-c4cnc(Oc5c(F)cccc5F)cc4C)c3N)[nH]c2cc1N1C(=O)NC2(CCNCC2)C1=O"
observed_result = 0.039

[[record]]
smiles_representation = "Cc1cc(Oc2ccccc2F)ccc1-n1ncc(C(=O)c2cc3cc(OC4CCN(C(C)C)CC4)c(NS(C)(=O)=O)cc3[nH]2)c1N"
observed_result = 0.0033

[[record]]
smiles_representation = "Cc1cc(Oc2ccccc2F)ccc1-n1ncc(C(=O)c2cc3cc(F)c(N4C(=O)NC5(CC5)C4=O)cc3[nH]2)c1N"
observed_result = 0.024

[[record]]
smiles_representation = "Cc1cc(-n2ncc(C(=O)c3cc4cc(OC5CCN(C(C)C)CC5)c(Cl)cc4[nH]3)c2N)ccc1Oc1ccccc1F"
observed_result = 0.19

[[record]]
smiles_representation = "Cc1cc2cc(C(=O)c3cnn(-c4ccc(Oc5ccccc5F)cc4C)c3N)[nH]c2cc1C1CCN(S(=O)(=O)C2CC2)CC1"
observed_result = 0.0074

[[record]]
smiles_representation = "Nc1c(C(=O)c2cc3cc(F)c(NS(=O)(=O)CCCF)cc3[nH]2)cnn1-c1c(F)cc(Oc2ccccc2F)cc1F"
observed_result = 0.065

[[record]]
smiles_representation = "Cc1cc(Oc2ccccc2F)ccc1-n1ncc(C(=O)c2cc3cc(N4CCOCC4)c(N4C(=O)C(C)(C)NC4=S)cc3[nH]2)c1N"
observed_result = 0.023

[[record]]
smiles_representation = "Cc1cc(Oc2ccccc2F)ccc1-n1ncc(C(=O)c2cc3cc(N4CCOCC4)c(N4CCN(S(C)(=O)=O)CC4)cc3[nH]2)c1N"
observed_result = 0.011


###

Target: human Src enzyme (Homo sapiens)
Construct: purchased Carna Biosciences, Inc. 08-173
Assay: Src enzyme inhibitory activity (time-resolved fluorometry, biotinylated peptide phosphorylation)
Format: biochemical
Details: read-out: SRC_IC50
# IC50 annotations
experimental-endpoint: IC50 (nM)

[[record]]
compound = "Cc1cc(Oc2ccccc2F)ccc1-n1ncc(C(=O)c2cc3cc(N4CCOCC4)c(N4CCCC4=O)cc3[nH]2)c1N [Example 5-1-105]"
scale_unit = "nM"
observed_result = 3.6

[[record]]
compound = "Cc1cc(-n2ncc(C(=O)c3cc4cc(OC(F)F)c(N5CCOC5=O)cc4[nH]3)c2N)ccc1Oc1ccccc1F [Example 5-1-177]"
scale_unit = "nM"
observed_result = 340

[[record]]
compound = "Cc1cc(Oc2c(F)cccc2F)ncc1-n1ncc(C(=O)c2cc3cc(OCC(F)F)c(-c4cncnc4)cc3[nH]2)c1N [Example 5-1-262]"
scale_unit = "nM"
observed_result = 6.4

[[record]]
compound = "Cc1cc(-n2ncc(C(=O)c3cc4cc(OC5CCN(C(C)C)CC5)c(C5CCOCC5)cc4[nH]3)c2N)ccc1Oc1ccccc1F [Example 5-1-247]"
scale_unit = "nM"
observed_result = 120

[[record]]
compound = "Cc1cc2cc(C(=O)c3cnn(-c4cc(F)c(Oc5ccccc5F)cc4C)c3N)[nH]c2cc1NS(C)(=O)=O [Example 5-1-199]"
scale_unit = "nM"
observed_result = 78

[[record]]
compound = "Cc1cc(-n2ncc(C(=O)c3cc4cc(OCC(F)F)c(NS(C)(=O)=O)cc4[nH]3)c2N)ccc1Oc1ccccc1F [Example 5-1-166]"
scale_unit = "nM"
observed_result = 820

[[record]]
compound = "Cc1cc(Oc2ccccc2F)ccc1-n1ncc(C(=O)c2cc3cc(N4CCOCC4)c(Br)cc3[nH]2)c1N [Example 5-1-147]"
scale_unit = "nM"
observed_result = 5.1

[[record]]
compound = "CC(C)N1CCC(c2cc3[nH]c(C(=O)c4cnn(-c5ccc(Oc6cccc(Cl)c6)cc5)c4N)cc3cc2F)CC1 [Example 5-1-008]"
scale_unit = "nM"
observed_result = 60

[[record]]
compound = "Cc1cc(-n2ncc(C(=O)c3cc4cc(OC5CCN(C(C)C)CC5)c(N5CCC(N6CCOCC6)CC5)cc4[nH]3)c2N)ccc1Oc1ccccc1F [Example 5-1-182]"
scale_unit = "nM"
observed_result = 24

[[record]]
compound = "Cc1cc2cc(C(=O)c3cnn(-c4cnc(Oc5ccccc5F)cc4C)c3N)[nH]c2cc1C1CCN(S(C)(=O)=O)CC1 [Example 5-1-090]"
scale_unit = "nM"
observed_result = 25

[[record]]
compound = "Cc1cc(Oc2c(F)cccc2F)ncc1-n1ncc(C(=O)c2cc3cc(F)c(N4CC(C)(C)NS4(=O)=O)cc3[nH]2)c1N [Example 5-1-398]"
scale_unit = "nM"
observed_result = 95

[[record]]
compound = "Cc1cc(Oc2ccccc2F)ccc1-n1ncc(C(=O)c2cc3cc(C4CC4)c(NS(=O)(=O)C4CCOCC4)cc3[nH]2)c1N [Example 5-1-397]"
scale_unit = "nM"
observed_result = 90

[[record]]
compound = "Nc1c(C(=O)c2cc3cc(F)c(NS(=O)(=O)CCCF)cc3[nH]2)cnn1-c1ccc(Oc2ncccc2Cl)cc1F [Example 5-1-036]"
scale_unit = "nM"
observed_result = 140

